readout.label: melting point

Incoming: Returns the measured melting point for the input compound. Input: CS(=O)(=O)OCCc1ccc(OCc2ccccc2)cc1
Outgoing: 48 to 50 °C

Incoming: // repeat for CCCCCCCCCCCCC1=C(Br)C(=O)c2ccccc2C1=O and report
Outgoing: 98 to 100 °C

Incoming: // repeat for CN(C)S(=O)(=O)n1c(C(F)(F)F)nc2c(Br)cc(C(F)(F)F)cc21 and report
Outgoing: 147 °C

Incoming: // repeat for COC(=O)c1ccc2c(c1)Oc1ccc(C(=O)OC)cc1C2(C)C and report
Outgoing: 145 to 147 °C

Incoming: // repeat for Cc1nc(-n2cnn(CC3CC3)c2=O)sc1C(N)=O and report
Outgoing: 180 to 181 °C

Incoming: // repeat for COc1ccc(/C=C/c2cc(F)cc(F)c2)cc1 and report
Outgoing: 108 to 110 °C

Incoming: // repeat for O=C(O)C1=Cc2ccc(Oc3ccccc3)cc2OC1C(F)(F)F (stereo unspecified) and report
Outgoing: 180 to 181 °C

Incoming: // repeat for COc1ccc(NC=O)cn1 and report
Outgoing: 81 to 83 °C

Incoming: // repeat for C=CCNC(=NCCSCc1[nH]cnc1C)NC#N and report
Outgoing: 113 to 114 °C

Incoming: // repeat for CCCCOc1nccc2c1C(c1ccccc1C(F)(F)F)C(C(=O)OCC)=C(C)N2 (stereo unspecified) and report
Outgoing: 174 to 175 °C

Incoming: // repeat for O=C(Nc1nccs1)c1cccc(-c2ccc3c(c2)C(Nc2ccc(Cl)cc2Cl)CO3)c1 (stereo unspecified) and report
Outgoing: 221 to 222 °C

###

readout.label: melting point

Incoming: Returns the measured melting point for the input compound. Input: CCOC(=O)C1CCC2(C)C(=CC(O)C3C2CCC2(C)C(O)CCC32)C1 (configuration not stated)
Outgoing: 170 to 171 °C

Incoming: // repeat for O=C(O)Cc1cccc(Oc2cccc(Cl)c2)c1O and report
Outgoing: 99 to 102 °C

Incoming: // repeat for O=[N+]([O-])c1ccc(-c2nnc3ccc(N=CCN4CCCCC4)nn23)o1 and report
Outgoing: 207 to 209 °C

Incoming: // repeat for O=C(Cl)C(OCc1ccc(-c2ccc(Cl)cc2)cc1)(C(F)(F)F)C(F)(F)F and report
Outgoing: 30 to 35 °C

Incoming: // repeat for CC(C)n1cc(-c2c(-c3ccccc3)nn3ccncc23)ccc1=O and report
Outgoing: 196 to 197 °C

Incoming: // repeat for CCc1[nH]n(C2CCCC2)c2nc(C3CCNC4CCCCC43)nc(=O)c1-2 (configuration not stated) and report
Outgoing: > 300 °C

Incoming: // repeat for NC(=O)CNC(=O)c1cccc(-c2cccc3cc(Cc4cccc(C(F)(F)F)c4)sc23)c1 and report
Outgoing: 147 to 148 °C

Incoming: // repeat for Nc1nc(OC(F)(F)F)cc(C(F)(F)F)n1 and report
Outgoing: 47 to 49 °C

Incoming: // repeat for CCOC(=O)c1sc(-n2ccc(OC)cc2=O)nc1C and report
Outgoing: 163 to 165 °C

Incoming: // repeat for CN1C(=O)CC[C@]2(C)c3ccc(-c4ccccc4Cl)cc3CC[C@@H]12 and report
Outgoing: 111 to 120 °C

Incoming: // repeat for OCc1cnc(Oc2ccccc2)s1 and report
Outgoing: 50 °C

Incoming: // repeat for C#CC1(O)C(C)CC2C3CCC4=CC(=O)CCC4(C)C3=CCC21C (configuration not stated) and report
Outgoing: 213 to 218 °C

Incoming: // repeat for CC(=O)S[C@@H]1CCNC1=S and report
Outgoing: 98 to 100 °C

Incoming: // repeat for Cc1ccc(-c2nc(Cc3cccc(CC(CO)CO)c3)c(C)o2)cc1 and report
Outgoing: 114 to 115 °C

Incoming: // repeat for CN(C)C1(c2ccccc2)CCC(CC(=O)NCCCCc2c[nH]c3ccccc23)CC1 (configuration not stated) and report
Outgoing: 186 °C

Incoming: // repeat for O=C1Nc2cccc(C(F)(F)F)c2C(=O)N2CCC[C@@H]12 and report
Outgoing: 176 to 178 °C

Incoming: // repeat for O=C(Nc1ccc(Cl)cc1)N(CCCN1CCC(Cc2ccccc2)CC1)c1ccc(Cl)c(Cl)c1 and report
Outgoing: 128 to 131 °C

Incoming: // repeat for CCc1nc2ccccc2c(=O)n1-c1ccccc1C and report
Outgoing: 93 to 94 °C

Incoming: // repeat for COc1ccc(C=CCN2CCc3nc(N)sc3CC2)c(OC)c1 and report
Outgoing: 95 to 100 °C

Incoming: // repeat for COc1ccc2[nH]c3c(c2c1)C[C@@]1(C)C(=O)N(CCBr)C(=O)N1[C@@H]3c1cccc(O)c1 (racemic) and report
Outgoing: 299 to 302 °C

Incoming: // repeat for COC(=O)c1ccc2ncc(C(=O)NCc3ccc(Cl)cc3)c(O)c2c1 and report
Outgoing: 290 to 292 °C

Incoming: // repeat for COC(=O)c1cccc2c1CCC2C#N (configuration not stated) and report
Outgoing: 76.5 to 77.5 °C

Incoming: // repeat for C[C@@H]1CC[C@H](C(=O)O)Cc2onc(-c3ccc(Cl)cc3)c21 (relative stereo) and report
Outgoing: 154 to 155 °C

Incoming: // repeat for O=C1CCCCc2ccccc21 and report
Outgoing: 79 to 84 °C

Incoming: // repeat for O=C(c1ccccc1)N1CCCC(c2ccc(Cl)cc2)=N1 and report
Outgoing: 117 to 118 °C

Incoming: // repeat for CC(C)(CO)NS(=O)(=O)c1cc(NC(=O)c2cnn3c(C4CC4)cc(-c4ccc(Cl)cc4)nc23)c(Cl)s1 and report
Outgoing: 238 to 241 °C

Incoming: // repeat for Cc1coc2c1C(=O)CC(c1ccccc1F)C2 (configuration not stated) and report
Outgoing: 71 to 72 °C

Incoming: // repeat for O=C(O)c1ccc(N2C(=O)c3ccc(C(=O)O)cc3C2=O)cc1 and report
Outgoing: 377 to 379 °C

Incoming: // repeat for O=C(/C=C/c1ccc2ccccc2c1)N1CCOC1=O and report
Outgoing: 121 to 123 °C

Incoming: // repeat for CCn1c(=O)c2[nH]c(/C=C/c3cccc(Cl)c3)nc2n(CC)c1=O and report
Outgoing: > 280 °C

Incoming: // repeat for Nc1ccc(C(=O)N2CCOCC2)cc1OCc1ccc(-c2ccccc2)c(-c2nnnn2C(c2ccccc2)(c2ccccc2)c2ccccc2)c1 and report
Outgoing: 95 to 105 °C

Incoming: // repeat for CCCCCCCCCCC(=O)Nc1cc(F)cc2c1OCCC21SC(=O)NC1=O (configuration not stated) and report
Outgoing: 69 to 71 °C

Incoming: // repeat for O=C(NC1CCOCC1)c1ccc2nonc2c1 and report
Outgoing: 204 to 205 °C

Incoming: // repeat for Cc1cnc(COc2nn3c(-c4ccccc4)nnc3cc2-c2ccccc2)s1 and report
Outgoing: 182 °C

Incoming: // repeat for CCC(=O)NCC1CC1c1c(Cl)ccc2nn(C)cc12 (configuration not stated) and report
Outgoing: 152 to 153 °C

Incoming: // repeat for CC(C)(C)Nc1c[nH]c2ccccc12 and report
Outgoing: 137 to 142 °C

Incoming: // repeat for CCS(=O)(=O)c1nsc(NC(=O)NC)c1C#N and report
Outgoing: 258 °C

Incoming: // repeat for CCN(CC)CCOCCC1CCCCN1C(=O)N1c2ccccc2NC(=O)c2csc(C)c21 (configuration not stated) and report
Outgoing: 105 to 107 °C

Incoming: // repeat for c1ccc(-c2nn3c(c2-c2cncc4cccnc24)CCC3)nc1 and report
Outgoing: 180 to 184 °C

Incoming: // repeat for O=C(O)Cn1cc(C(=O)O)c(=O)c2cc(O)ccc(=O)c21 and report
Outgoing: > 250 °C

Incoming: // repeat for COc1ccc(-n2cccc2)c([N+](=O)[O-])c1 and report
Outgoing: 75.5 to 76.5 °C

Incoming: // repeat for COC(=O)C1=C(C)NC(C=O)=C(C(=O)OC)C1c1cccc2c(=O)c(C)c(-c3ccccc3)oc12 (configuration not stated) and report
Outgoing: 216 °C

The origin of these recorded values is a melting point compilation (Tetko et al.; mined from patent text by program, amines drawn as free bases though some values may be those of a salt).
